target: Peroxisome proliferator-activated receptor gamma (Homo sapiens, UniProt P37231); assay: Displacement of Fluormone-Pan-PPAR Green from human GST-tagged PPARgamma LBD by TR-FRET assay
Sequence (P37231 whole entry, the tested form may be a part): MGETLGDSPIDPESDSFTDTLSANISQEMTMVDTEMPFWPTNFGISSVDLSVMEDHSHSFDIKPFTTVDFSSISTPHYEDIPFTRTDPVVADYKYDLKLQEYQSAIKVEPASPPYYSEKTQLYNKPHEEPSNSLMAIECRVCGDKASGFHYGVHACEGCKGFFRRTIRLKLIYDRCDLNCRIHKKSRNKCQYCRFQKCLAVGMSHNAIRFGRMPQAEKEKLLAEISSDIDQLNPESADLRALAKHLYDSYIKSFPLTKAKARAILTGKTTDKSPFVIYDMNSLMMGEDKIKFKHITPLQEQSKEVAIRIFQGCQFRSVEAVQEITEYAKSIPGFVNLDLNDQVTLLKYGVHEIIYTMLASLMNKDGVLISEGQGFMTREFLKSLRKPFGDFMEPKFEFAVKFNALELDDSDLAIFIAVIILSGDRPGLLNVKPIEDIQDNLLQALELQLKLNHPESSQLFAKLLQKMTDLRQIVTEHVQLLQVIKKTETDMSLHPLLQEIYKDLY
Answer each item with its documented Ki.
Give bare numbers, in µM.

// input: 3 compounds below; output: Ki for each
1. CNC(=O)[C@H]1O[C@@H](n2cnc3c(NCc4cccc(I)c4)nc(Cl)nc32)[C@H](O)[C@@H]1O
2. CNC(=O)[C@H]1S[C@@H](n2cnc3c(NCc4cccc(I)c4)nc(Cl)nc32)[C@H](O)[C@@H]1O
3. O=C(NC1CCC1)[C@H]1S[C@@H](n2cnc3c(NCc4cccc(I)c4)ncnc32)[C@H](O)[C@@H]1O

[2.18, 4.6, 0.17]
